koff by entry:
Target: T1, Human ALPP (leucine zipper) (human)
T1 construct: Whole entry: ALPP fused with a cysteine stabilised leucine zipper and His tag; also called hALPP
T1 chain: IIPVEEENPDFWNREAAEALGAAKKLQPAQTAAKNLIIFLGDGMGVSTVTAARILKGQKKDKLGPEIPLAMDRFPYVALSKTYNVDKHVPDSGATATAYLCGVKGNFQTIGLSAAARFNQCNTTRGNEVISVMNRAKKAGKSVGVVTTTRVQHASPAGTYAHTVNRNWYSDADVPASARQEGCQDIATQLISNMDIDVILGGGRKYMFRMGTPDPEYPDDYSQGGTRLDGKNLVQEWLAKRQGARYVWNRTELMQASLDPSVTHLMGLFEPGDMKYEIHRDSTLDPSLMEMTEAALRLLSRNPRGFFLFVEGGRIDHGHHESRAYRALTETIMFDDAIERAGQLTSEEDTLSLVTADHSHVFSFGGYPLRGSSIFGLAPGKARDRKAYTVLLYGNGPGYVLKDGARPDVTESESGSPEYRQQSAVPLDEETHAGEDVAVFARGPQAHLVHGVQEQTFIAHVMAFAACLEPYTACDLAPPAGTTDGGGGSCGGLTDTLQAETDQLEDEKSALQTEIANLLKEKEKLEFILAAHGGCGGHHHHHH
Assay: BLI, antigen immobilised

B01 His (VHH, not shown: small tags and cut ends) VHH: QVQLVESGGGLVQAGGSLRLSCEVTRSPMPIDTMAWYRQAPGRQRELVAIISRSGSTNYADSVKGRFTISRNDTKSTMYKSTMYLKMNTLELEDTGVYYCNAVGLWNGAEYWGQGTQVTVSS	0.000191 s⁻¹

Turning now to a further binder:
Ask | So what does the record say about koff for F05 His (VHH, not shown: small tags and cut ends) VHH: QVQLVESGGGLVQAGGSLRLSCAASGRAFGDYNIGWFRQAPGKEREFVARRTWDGSSTRYDDSVKGRFTVSIDNAKNTAYLQMNSLKTEDTAVYYCAAGRYSRVRGWEYDYWGQGTQVTVSS ?
Reply | < 1e-07 s⁻¹
